target: T1, human serum albumin (human, UniProt P02768 25-609); assay: SPR (Biacore 8K), albumin immobilised, 25 C, 1:1 kinetics
T1 construct: bought protein, amine-coupled to a CM5 chip; also called Human SA; HSA
assay.metric: koff (s⁻¹)
Please give a number only; it is taken to be in s⁻¹.

The following binders have reported results that may help.
[
  {
    "binder": "INS Analog 27 (other, single-chain insulin B-L2-A-L1-VHH fusion; also called Ex. 27) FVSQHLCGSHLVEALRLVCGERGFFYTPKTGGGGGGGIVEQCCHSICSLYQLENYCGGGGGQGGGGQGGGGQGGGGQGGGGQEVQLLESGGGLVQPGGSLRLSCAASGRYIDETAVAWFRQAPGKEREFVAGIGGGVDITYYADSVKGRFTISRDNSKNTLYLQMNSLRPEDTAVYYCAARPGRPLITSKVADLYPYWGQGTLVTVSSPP",
    "unit.spec": "s⁻¹",
    "koff": 0.00013
  },
  {
    "binder": "INS Analog 25 (other, single-chain insulin B-L2-A-L1-VHH fusion; also called Ex. 25) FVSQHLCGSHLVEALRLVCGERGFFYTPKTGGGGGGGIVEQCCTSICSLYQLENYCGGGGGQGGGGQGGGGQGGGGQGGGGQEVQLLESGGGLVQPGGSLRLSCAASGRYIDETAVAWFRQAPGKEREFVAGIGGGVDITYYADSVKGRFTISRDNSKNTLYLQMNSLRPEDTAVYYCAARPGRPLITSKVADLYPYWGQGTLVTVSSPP",
    "unit.spec": "s⁻¹",
    "koff": "8.4e-05"
  },
  {
    "binder": "INS Analog 26 (other, single-chain insulin B-L2-A-L1-VHH fusion; also called Ex. 26) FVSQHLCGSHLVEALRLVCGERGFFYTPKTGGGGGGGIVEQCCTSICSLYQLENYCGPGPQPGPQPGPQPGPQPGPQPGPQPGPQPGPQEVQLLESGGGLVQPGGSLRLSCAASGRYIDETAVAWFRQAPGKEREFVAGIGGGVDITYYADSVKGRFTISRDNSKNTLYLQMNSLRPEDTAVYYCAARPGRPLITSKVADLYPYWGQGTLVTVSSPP",
    "unit.spec": "s⁻¹",
    "koff": "9.4e-05"
  },
  {
    "binder": "INS Analog 29 (other, single-chain insulin B-L2-A-L1-VHH fusion; also called Ex. 29) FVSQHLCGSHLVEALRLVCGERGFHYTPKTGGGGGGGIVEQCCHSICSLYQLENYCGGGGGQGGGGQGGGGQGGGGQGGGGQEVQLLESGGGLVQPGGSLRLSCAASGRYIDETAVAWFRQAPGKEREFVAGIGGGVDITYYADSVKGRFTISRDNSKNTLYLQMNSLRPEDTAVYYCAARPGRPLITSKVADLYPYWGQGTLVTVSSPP",
    "unit.spec": "s⁻¹",
    "koff": 0.00013
  }
]

Ask: Which koff value belongs to INS Analog 28 (other, single-chain insulin B-L2-A-L1-VHH fusion; also called Ex. 28) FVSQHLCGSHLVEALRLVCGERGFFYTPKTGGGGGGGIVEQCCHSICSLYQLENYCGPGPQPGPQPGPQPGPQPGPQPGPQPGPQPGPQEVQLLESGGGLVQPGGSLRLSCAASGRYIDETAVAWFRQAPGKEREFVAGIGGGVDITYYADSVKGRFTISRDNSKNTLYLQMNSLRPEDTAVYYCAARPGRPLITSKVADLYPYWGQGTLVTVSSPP ?
Result: 0.00012

Ask: Please look up its koff: INS Analog 30 (other, single-chain insulin B-L2-A-L1-VHH fusion; also called Ex. 30) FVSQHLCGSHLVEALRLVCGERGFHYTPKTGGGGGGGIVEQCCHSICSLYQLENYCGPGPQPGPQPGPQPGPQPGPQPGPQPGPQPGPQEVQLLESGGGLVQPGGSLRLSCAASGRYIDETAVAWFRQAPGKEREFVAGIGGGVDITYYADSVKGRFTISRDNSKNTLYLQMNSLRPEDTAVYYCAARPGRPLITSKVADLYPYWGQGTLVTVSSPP
Result: 0.00011

Ask: Given the entry INS Analog 24 (other, single-chain insulin B-L2-A-L1-VHH fusion; also called Ex. 24) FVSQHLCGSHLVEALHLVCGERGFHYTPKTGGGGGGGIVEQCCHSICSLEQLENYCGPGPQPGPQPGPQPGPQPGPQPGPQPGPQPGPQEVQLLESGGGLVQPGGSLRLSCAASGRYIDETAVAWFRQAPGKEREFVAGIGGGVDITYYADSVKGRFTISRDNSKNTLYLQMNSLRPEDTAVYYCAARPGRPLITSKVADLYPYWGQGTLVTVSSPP , report its measured koff.
Result: 0.00012
